- experimentalTarget: AIMP2-DX2 (Homo sapiens)
- Sequence (Q13155 1-251 isoform Q13155-2): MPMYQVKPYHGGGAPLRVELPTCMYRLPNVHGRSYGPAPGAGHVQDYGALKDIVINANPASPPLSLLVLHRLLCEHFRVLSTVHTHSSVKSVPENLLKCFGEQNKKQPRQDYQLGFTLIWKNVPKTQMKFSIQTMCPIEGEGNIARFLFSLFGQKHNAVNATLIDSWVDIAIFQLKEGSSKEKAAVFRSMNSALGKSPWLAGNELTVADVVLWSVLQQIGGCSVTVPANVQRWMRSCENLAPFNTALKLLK
- test: luciferase assay of pGL-DX-2 transfected A549 cells
- measurementParameters: luciferase activity 4 hours after compound treatment; N.C (DMSO) 20089; lower = inhibition
measurementLabel: AIMP2-DX2 activity in A549 cells

// solved cases for AIMP2-DX2 activity in A549 cells follow
{"compound": "Cc1ccc(NC(=O)/C=C\\C(=O)Nc2ccc(F)cc2)cc1F", "experimentalTarget": "AIMP2-DX2 (Homo sapiens)", "AIMP2-DX2 activity in A549 cells": 6525}
{"compound": "COc1ccc(NC(=O)/C=C\\C(=O)Nc2ccc(OC)cc2)cc1 [compound 25, N1,N4-bis(4-methoxyphenyl) maleamide]", "experimentalTarget": "AIMP2-DX2 (Homo sapiens)", "AIMP2-DX2 activity in A549 cells": 5152}
{"compound": "CCCCc1cccc(NC(=O)/C=C\\C(=O)Nc2ccc(C)c(C)c2)c1", "experimentalTarget": "AIMP2-DX2 (Homo sapiens)", "AIMP2-DX2 activity in A549 cells": 6871}
{"compound": "Cc1ccc(NC(=O)/C=C\\C(=O)O)cc1F", "experimentalTarget": "AIMP2-DX2 (Homo sapiens)", "AIMP2-DX2 activity in A549 cells": 6446}
{"compound": "Cc1ccc(NC(=O)/C=C\\C(=O)Nc2ccc(C)c(F)c2)cc1C", "experimentalTarget": "AIMP2-DX2 (Homo sapiens)", "AIMP2-DX2 activity in A549 cells": 10551}
{"compound": "O=C(O)/C=C\\C(=O)Nc1ccc(F)cc1", "experimentalTarget": "AIMP2-DX2 (Homo sapiens)", "AIMP2-DX2 activity in A549 cells": 7937}
{"compound": "Cc1cccc(NC(=O)/C=C\\C(=O)Nc2cccc(C)c2)c1 [compound 4, N1,N4-di-m-tolylmaleamide]", "experimentalTarget": "AIMP2-DX2 (Homo sapiens)", "AIMP2-DX2 activity in A549 cells": 9605}
{"compound": "Cc1ccc(C)c(NC(=O)/C=C\\C(=O)Nc2ccc(C)c(C)c2)c1", "experimentalTarget": "AIMP2-DX2 (Homo sapiens)", "AIMP2-DX2 activity in A549 cells": 10043}
{"compound": "Cc1cc(F)ccc1NC(=O)/C=C\\C(=O)Nc1ccc(F)cc1C", "experimentalTarget": "AIMP2-DX2 (Homo sapiens)", "AIMP2-DX2 activity in A549 cells": 5586}
{"compound": "CCc1cccc(NC(=O)/C=C\\C(=O)Nc2ccc(F)cc2)c1", "experimentalTarget": "AIMP2-DX2 (Homo sapiens)", "AIMP2-DX2 activity in A549 cells": 3978}

P. Cc1ccc(NC(=O)/C=C\C(=O)Nc2cc(Cl)cc(Cl)c2)cc1C
Q. COc1cccc(NC(=O)/C=C\C(=O)Nc2ccc(F)cc2)c1
R. Cc1cccc(NC(=O)/C=C/C(=O)Nc2cccc(C)c2)c1 [compound 2, N1,N4-di-m-tolylfumaramide]
Ranking field: AIMP2-DX2 activity in A549 cells; order: falling. Give the labels in the order requested.
R, P, Q
(R: 14072, P: 8268, Q: 4239)

###

- experimentalTarget: UniProt Q13155
- test: luciferase assay of pGL-DX-2 transfected A549 cells
- measurementParameters: luciferase activity 4 hours after compound treatment; N.C (DMSO) 20089; lower = inhibition
measurementLabel: AIMP2-DX2 activity in A549 cells

{"compound": "O=C(/C=C/C(=O)Nc1ccc(Cl)c(Cl)c1)Nc1ccc(Cl)c(Cl)c1 [compound 23, N1,N4-bis(3,4-dichlorophenyl)fumaramide]", "AIMP2-DX2 activity in A549 cells": 5352}
{"compound": "Cc1cccc(NC(=O)/C=C\\C(=O)Nc2ccc(F)cc2)c1", "AIMP2-DX2 activity in A549 cells": 5662}
{"compound": "O=C(O)/C=C\\C(=O)Nc1cc(Cl)cc(Cl)c1", "AIMP2-DX2 activity in A549 cells": 8049}
{"compound": "Cc1cccc(NC(=O)/C=C\\C(=O)O)c1", "AIMP2-DX2 activity in A549 cells": 6328}
{"compound": "Cc1ccc(NC(=O)/C=C/C(=O)Nc2ccc(C)c(F)c2)cc1F", "AIMP2-DX2 activity in A549 cells": 5812}
